Listing: Pre-emergence Herbicidal Activity ZEAMX (growth controlling degree) of selected compounds
- Tested on: corn (Zea mays L.): ZEAMX
- assay method text: Test Example 1 pre-emergence herbicidal activity, ZEAMX
- Type: in vivo
- condition set: Rate 63 g a.i./ha, visually observed 20th to 23rd day after application
assay metric: Pre-emergence Herbicidal Activity ZEAMX (growth controlling degree)

[[record]]
compound = "COc1c(Cl)cc(F)c(-c2nn(C)c(OC(F)F)c2Cl)c1NC(=O)c1ccc(C)cc1"
test_result = "0%"

[[record]]
compound = "CCCOC(=O)Nc1c(OC)c(Cl)cc(F)c1-c1nn(C)c(OC(F)F)c1Cl"
test_result = "10%"

[[record]]
compound = "CCOC(=O)C(C)Nc1c(OC)c(Cl)cc(F)c1-c1nn(C)c(OC(F)F)c1Cl (stereo not shown)"
test_result = "0%"

[[record]]
compound = "COc1c(Cl)cc(F)c(-c2nn(C)c(OC(F)F)c2Cl)c1NC(=O)C=Cc1ccccc1C"
test_result = "0%"

[[record]]
compound = "COc1c(Cl)cc(F)c(-c2nn(C)c(OC(F)F)c2Cl)c1NC=O"
test_result = "40%"

[[record]]
compound = "C#CCOC(=O)Nc1c(OC)c(Cl)cc(F)c1-c1nn(C)c(OC(F)F)c1Cl"
test_result = "10%"

[[record]]
compound = "COc1ccc(C(=O)Nc2c(OC)c(Cl)cc(F)c2-c2nn(C)c(OC(F)F)c2Cl)cc1"
test_result = "20%"

[[record]]
compound = "COc1c(Cl)cc(F)c(-c2nn(C)c(OC(F)F)c2Cl)c1NC(=O)COCc1ccccc1"
test_result = "0%"

[[record]]
compound = "COc1c(Cl)cc(F)c(-c2nn(C)c(OC(F)F)c2Cl)c1NC(=O)C=Cc1cccc(F)c1"
test_result = "0%"

[[record]]
compound = "COc1c(Cl)cc(F)c(-c2nn(C)c(OC(F)F)c2Cl)c1NC(=O)CCOc1ccccc1"
test_result = "0%"

[[record]]
compound = "COc1c(Cl)cc(F)c(-c2nn(C)c(OC(F)F)c2Cl)c1NC(=O)CC(C)(C)C"
test_result = "0%"

[[record]]
compound = "COc1c(Cl)cc(F)c(-c2nn(C)c(OC(F)F)c2Cl)c1NC(C)C"
test_result = "10%"

[[record]]
compound = "COc1c(Cl)cc(F)c(-c2nn(C)c(OC(F)F)c2Cl)c1NC(=O)c1cccc(Br)c1"
test_result = "0%"

[[record]]
compound = "COCC(=O)Nc1c(OC)c(Cl)cc(F)c1-c1nn(C)c(OC(F)F)c1Cl"
test_result = "40%"

[[record]]
compound = "COc1c(Cl)cc(F)c(-c2nn(C)c(OC(F)F)c2Cl)c1NC(=O)C=Cc1ccc(C)cc1"
test_result = "0%"

[[record]]
compound = "COc1c(Cl)cc(F)c(-c2nn(C)c(OC(F)F)c2Cl)c1NC(=O)OCc1cccnc1"
test_result = "0%"


###

- System: rice (Oryza sativa L.), ORYSA
- assay method text: Test Example 2 post-emergence (foliage treatment) herbicidal activity, ORYSA
- Assay type: in vivo
- condition set: 63 g a.i./ha
Sorting guide: entries reporting growth controlling degree, ORYSA beneath 90% go in the TRUE pile, the rest go in the FALSE pile.

[[record]]
compound = "COc1c(Cl)cc(F)c(-c2nn(C)c(OC(F)F)c2Cl)c1NC(=O)Oc1ccccc1 [Compound 1-67]"
group_label = "TRUE"

[[record]]
compound = "COc1c(Cl)cc(F)c(-c2nn(C)c(OC(F)F)c2Cl)c1N(C=O)C1CCCC1 [Compound 1-10]"
group_label = "TRUE"

[[record]]
compound = "COCCOC(=O)N(C(=O)OCCOC)c1c(OC)c(Cl)cc(F)c1-c1nn(C)c(OC(F)F)c1Cl [Compound 1-54]"
group_label = "FALSE"

[[record]]
compound = "COCCC(=O)Nc1c(OC)c(Cl)cc(F)c1-c1nn(C)c(OC(F)F)c1Cl [Compound 1-40]"
group_label = "FALSE"

[[record]]
compound = "COc1c(Cl)cc(F)c(-c2nn(C)c(OC(F)F)c2Cl)c1NC(=O)C=Cc1ccc(C)cc1 [Compound 1-255]"
group_label = "TRUE"

[[record]]
compound = "COc1cccc(C(=O)Nc2c(OC)c(Cl)cc(F)c2-c2nn(C)c(OC(F)F)c2Cl)c1 [Compound 1-28]"
group_label = "FALSE"

[[record]]
compound = "COc1c(Cl)cc(F)c(-c2nn(C)c(OC(F)F)c2Cl)c1NC(=O)c1ccccc1C [Compound 1-24]"
group_label = "FALSE"


Numbers sourced from patent US20050245399A1.
